Test system: IGROV1 ovarian
Experiment: NCI tumour cell line growth inhibition, 48 h
Readout kind: TGI

In: Entry COc1cc(OC)c(C(=O)/C=C/c2cccc(C#N)c2)c(OC)c1 has what TGI?
Out: 5.91 µM

In: Entry CCOc1cc2c(c(OCC)c1O)CC[C@@H]1[C@@H]2CC[C@]2(C)[C@@H](O)CC[C@@H]12 has what TGI?
Out: > 100 µM

In: Entry NC(=O)c1ccc(-c2nc(-c3ccc4c(c3)OCO4)c(-c3ccccn3)[nH]2)cc1 has what TGI?
Out: > 100 µM

In: Entry CN(Cc1cnc2c(N)nc(N)nc2n1)c1ccc(Cl)cc1 has what TGI?
Out: > 100 µM

In: Entry O=C(c1ccccc1)N1C(=S)N(c2ccccn2)C(=Nc2ccccc2)C1=Nc1ccccc1 has what TGI?
Out: > 64.1 µM

In: Entry CCOC(=O)c1nc2ccc(C(F)(F)F)cc2nc1Oc1ccc(C(=O)OC)cc1 has what TGI?
Out: > 100 µM

In: Entry CC1=C(C(=O)N[C@@H](CC(C)C)C(=O)O)N2C(=O)[C@@H](NC(=O)C(N)c3ccccc3)[C@H]2SC1 (stereo not given in full) has what TGI?
Out: > 100 µM

In: Entry CCOC(=O)C(Cl)(NC(=O)OCc1ccccc1)C(F)(F)F (stereo not given) has what TGI?
Out: > 100 µM

In: Entry Cc1n(Cc2ccccc2)nc2sc(N)n[n+]12 has what TGI?
Out: > 100 µM

In: Entry O=C1c2ccc3c4c(ccc(c24)C(=O)N1CCCNCc1ccccc1Cl)C(=O)N(CCCNCc1ccccc1Cl)C3=O has what TGI?
Out: 1.63 µM

In: Entry CC(Oc1ccc(OCC2CCCCC2)cc1)C(=O)NCc1ccco1 (stereo not given) has what TGI?
Out: > 100 µM

In: Entry N#CNC(=NCCc1c[nH]c2ccccc12)Oc1ccccc1 has what TGI?
Out: > 100 µM

In: Entry Cc1[nH]c(=O)nc(Nc2ccc(Cl)cc2)c1C(=O)N1CCN(CCO)CC1 has what TGI?
Out: > 100 µM

In: Entry NCCN.O=C([O-])CN1CCOCC1.[OH-].[Pt+4] has what TGI?
Out: > 100 µM

In: Entry CCN1C(=O)N(CC)C2C1NN=c1s/c(=C\c3ccccn3)c(=O)n12 (stereo not given) has what TGI?
Out: > 100 µM

In: Entry COc1ccc2nc3cc(Cl)ccc3c(SCC(=O)Nc3ccccc3-c3ccccc3NC(=O)CSc3c4ccc(Cl)cc4nc4ccc(OC)cc34)c2c1 has what TGI?
Out: > 100 µM

In: Entry O=C(N/N=C/c1cc(Br)cc(Br)c1[O-])c1ccccc1O.O=C(N/N=C/c1cc(Br)cc(Br)c1[O-])c1ccccc1O.[Co+2] has what TGI?
Out: 8.44 µM

In: Entry CCOC(=O)C1CCCCN1C(=O)c1ccc(Nc2cnc3cc(C(F)(F)F)ccc3n2)cc1 (stereo not given) has what TGI?
Out: 40.8 µM

In: Entry CC1=CC2c3cccc4[nH]cc(c34)CC2N(C)C1 (stereo not given) has what TGI?
Out: > 100 µM

In: Entry CC(=O)Nc1cccc(N=NN(C)C)c1 has what TGI?
Out: > 100 µM

====

Tested on: HCT-15 colon
Test: NCI tumour cell line growth inhibition, 48 h
Readout kind: log10 of TGI (log10 of the value in µM)
// stored as log10 of TGI expressed in µM

In: Entry O=C(NNC(=O)c1csc(NC(=S)NC2CCCCC2)n1)c1ccccc1 has what log10 of TGI?
Out: 1.11

In: Entry COc1cccc(/C=C2\S/C(=N/Nc3nc(-c4ccc([N+](=O)[O-])cc4)cs3)NC2=O)c1O has what log10 of TGI?
Out: 1.53

In: Entry c1ccc2[nH]c(-c3cc(-c4ccc5c(c4)OCO5)n[nH]3)nc2c1 has what log10 of TGI?
Out: 1.31

In: Entry O=C(c1ccc(Cl)cc1)N(C(=S)OCCOc1ccccc1)c1ccccc1 has what log10 of TGI?
Out: 1.63

In: Entry COc1cccc(-c2cc3c4c(nc5ccccc53)C(=O)c3cccnc3-c4n2)c1 has what log10 of TGI?
Out: 0.65

In: Entry COc1ccccc1C1c2cc3c(cc2OC(N2CCOCC2)C1C)OCO3 (configuration not stated) has what log10 of TGI?
Out: 1.62

In: Entry Nc1ccccc1C#C/C=C\C#Cc1cccc(O)c1 has what log10 of TGI?
Out: 1.14

In: Entry O=C1CC(NCc2ccccc2)c2c(Cl)sc(Cl)c21 (configuration not stated) has what log10 of TGI?
Out: 1.67

In: Entry Cc1ccc(-c2nc3nc(-c4ccccc4)nc(N4CCNCC4)c3o2)cc1 has what log10 of TGI?
Out: -0.08

In: Entry CCOc1ccc(N/C(=C(/C(Cl)=C(/Cl)NC(C)(C)C)[N+](=O)[O-])n2nnc3ccccc32)cc1 has what log10 of TGI?
Out: 1.59

In: Entry C=C1C[C@H](O)[C@H](Br)C(C)(C)C12CCC(C)(Cl)C(Br)C2 (some centres not stated) has what log10 of TGI?
Out: 1.29

In: Entry O=C1C(c2cnc3ccccc3n2)=C(O)c2ccccc21 has what log10 of TGI?
Out: 0.99

In: Entry O=[N+]([O-])c1ccc(N2CCC(CCCC3CCN(c4ccc([N+](=O)[O-])cc4[N+](=O)[O-])CC3)CC2)c([N+](=O)[O-])c1 has what log10 of TGI?
Out: 1.62

In: Entry O=S(=O)(c1cccc2c(I)cccc12)N1CCCNCC1 has what log10 of TGI?
Out: 1.54

In: Entry O=C(N/N=C/c1cc(Br)cc(Br)c1[O-])c1ccccc1O.O=C(N/N=C/c1cc(Br)cc(Br)c1[O-])c1ccccc1O.[Co+2] has what log10 of TGI?
Out: 1.16

In: Entry O=C(c1cc2c(c3ccccc13)NC1(CCCCC1)N=C2C(F)(F)F)C(F)(F)F has what log10 of TGI?
Out: 1.22

In: Entry O=C(c1ccccc1)N1C(=S)N(c2ccccn2)C(=Nc2ccccc2)C1=Nc1ccccc1 has what log10 of TGI?
Out: 1.17

In: Entry CC(C)Oc1c(-c2ccc(F)cc2)c(O)c2c3c1oc(=O)n3C=CC2C (configuration not stated) has what log10 of TGI?
Out: 1.47

In: Entry COc1cnc2c(c1)C(=O)c1c-2n(CCCNC2=NCCS2)c(=O)c2cc(Cl)ccc12 has what log10 of TGI?
Out: 0.43

In: Entry N#Cc1nc2c(S(=O)(=O)c3ccc(Cl)cc3)c(N)n(CCCN3CCOCC3)c2nc1C#N has what log10 of TGI?
Out: 1.43

The origin of these recorded values is PubChem BioAssay (NCI).
